- target-system: CTLA-4 (Homo sapiens (Human)) (UniProt P16410)
- Sequence (P16410 36-223): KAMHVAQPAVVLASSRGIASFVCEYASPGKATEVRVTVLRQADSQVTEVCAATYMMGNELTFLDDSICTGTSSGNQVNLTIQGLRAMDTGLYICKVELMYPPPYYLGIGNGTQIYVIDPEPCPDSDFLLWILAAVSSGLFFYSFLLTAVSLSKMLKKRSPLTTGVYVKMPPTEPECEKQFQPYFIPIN
- run-description: flow cytometry, transfected cells
assay-metric: MFI ratio to WT (ΔWT) (fold)
Note: unit fold is implicit; provide only the numeric part.

Solved entries (count: 2):
>  <binder>
ICOSL-Fc N52T/N57H/Q100S (Fc fusion) DTQEKEVRAMVGSDVELSCACPEGSRFDLNDVYVYWQTSESKTVVTYHIPQTSSLEHVDSRYRNRALMSPAGMLRGDFSLRLFNVTPQDEQKFHCLVLSSSLGFQEVLSVEVTLHVAANFSVPVVSAPHSPSQDELTFTCTSINGYPRPNVYWINKTDNSLLDQALQNDTVFLNMRGLYDVVSVLRIARTPSVNIGCCIENVLLQQNLTVGSQTGNDIGERDKITENPVSTGEKNAAT

>  <MFI ratio to WT (ΔWT) [fold]>
1.14

$$$$
>  <binder>
ICOSL-Fc N52Q/N57S/Q100A (Fc fusion) DTQEKEVRAMVGSDVELSCACPEGSRFDLNDVYVYWQTSESKTVVTYHIPQQSSLESVDSRYRNRALMSPAGMLRGDFSLRLFNVTPQDEQKFHCLVLSASLGFQEVLSVEVTLHVAANFSVPVVSAPHSPSQDELTFTCTSINGYPRPNVYWINKTDNSLLDQALQNDTVFLNMRGLYDVVSVLRIARTPSVNIGCCIENVLLQQNLTVGSQTGNDIGERDKITENPVSTGEKNAAT

>  <MFI ratio to WT (ΔWT) [fold]>
0.95

$$$$

Now turn to the next binder.
Exercise: Entry ICOSL-Fc N52Q/N57F (Fc fusion) DTQEKEVRAMVGSDVELSCACPEGSRFDLNDVYVYWQTSESKTVVTYHIPQQSSLEFVDSRYRNRALMSPAGMLRGDFSLRLFNVTPQDEQKFHCLVLSQSLGFQEVLSVEVTLHVAANFSVPVVSAPHSPSQDELTFTCTSINGYPRPNVYWINKTDNSLLDQALQNDTVFLNMRGLYDVVSVLRIARTPSVNIGCCIENVLLQQNLTVGSQTGNDIGERDKITENPVSTGEKNAAT : reported MFI ratio to WT (ΔWT) = ?
Key: 1.11
